TEST_TARGET: T1, biotinylated avi-tagged TβRII (UniProt P37173 23-166, a single biotin on the avi tag (BirA))
T1 construct: also called TβRII (SPR surface)
T1 sequence (P37173 23-166): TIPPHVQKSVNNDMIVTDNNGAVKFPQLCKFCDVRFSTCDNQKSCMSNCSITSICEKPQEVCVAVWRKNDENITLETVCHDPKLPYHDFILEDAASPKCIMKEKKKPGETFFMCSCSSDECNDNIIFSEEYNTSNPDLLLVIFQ
PROTOCOL_SUMMARY: SPR; biotinylated avi-tagged TβRII captured (50-150 RU) on a neutravidin-coated CM-5 chip, TGM-D3 and its variants injected; 25 mM Hepes, pH 7.4, 150 mM NaCl, 0.05% surfactant P20, 100 µl/min; 1:1 kinetic fit of duplicate or triplicate injection series
CONDITION_DESCRIPTION: both partners purified
READOUT_TYPE: log10 of kon (log10 of the value in M⁻¹ s⁻¹)

BINDER: TGM-D3 I238A (domain or fragment, not shown: Thioredoxin, N-terminal, cleaved; His6, N-terminal, cleaved) GSGTGCPPLPDDGIVFYEYYGYAGDRHTVGPVVTKDSSGNYPSPTHARRRCRALSQEADPGEFVAACYKSGTTGESHWEYYKNIGKCPDP
log10 of kon: 4.97
//
BINDER: TGM-D3 N255A (domain or fragment, also called Asn255Ala; not shown: Thioredoxin, N-terminal, cleaved; His6, N-terminal, cleaved) GSGTGCPPLPDDGIVFYEYYGYAGDRHTVGPVVTKDSSGNYPSPTHARRRCRALSQEADPGEFVAICYKSGTTGESHWEYYKAIGKCPDP
log10 of kon: 5.68
//
BINDER: TGM-D3 Y252A (domain or fragment, not shown: Thioredoxin, N-terminal, cleaved; His6, N-terminal, cleaved) GSGTGCPPLPDDGIVFYEYYGYAGDRHTVGPVVTKDSSGNYPSPTHARRRCRALSQEADPGEFVAICYKSGTTGESHWEAYKNIGKCPDP
log10 of kon: 4.89
//
BINDER: TGM-D3 K254A (domain or fragment, also called Lys254Ala; not shown: Thioredoxin, N-terminal, cleaved; His6, N-terminal, cleaved) GSGTGCPPLPDDGIVFYEYYGYAGDRHTVGPVVTKDSSGNYPSPTHARRRCRALSQEADPGEFVAICYKSGTTGESHWEYYANIGKCPDP
log10 of kon: 5.48
//
BINDER: TGM-D3 V236A (domain or fragment, also called Val236Ala; not shown: Thioredoxin, N-terminal, cleaved; His6, N-terminal, cleaved) GSGTGCPPLPDDGIVFYEYYGYAGDRHTVGPVVTKDSSGNYPSPTHARRRCRALSQEADPGEFAAICYKSGTTGESHWEYYKNIGKCPDP
log10 of kon: 5.58
//
BINDER: TGM-D3 I256A (domain or fragment, also called Ile256Ala; not shown: Thioredoxin, N-terminal, cleaved; His6, N-terminal, cleaved) GSGTGCPPLPDDGIVFYEYYGYAGDRHTVGPVVTKDSSGNYPSPTHARRRCRALSQEADPGEFVAICYKSGTTGESHWEYYKNAGKCPDP
log10 of kon: 5.94
//
BINDER: TGM-D3 K258A (domain or fragment, also called Lys258Ala; not shown: Thioredoxin, N-terminal, cleaved; His6, N-terminal, cleaved) GSGTGCPPLPDDGIVFYEYYGYAGDRHTVGPVVTKDSSGNYPSPTHARRRCRALSQEADPGEFVAICYKSGTTGESHWEYYKNIGACPDP
log10 of kon: 5.63
//
BINDER: TGM-D3 H199A (domain or fragment, also called His199Ala; not shown: Thioredoxin, N-terminal, cleaved; His6, N-terminal, cleaved) GSGTGCPPLPDDGIVFYEYYGYAGDRATVGPVVTKDSSGNYPSPTHARRRCRALSQEADPGEFVAICYKSGTTGESHWEYYKNIGKCPDP
log10 of kon: 5.52
//
BINDER: TGM-D3 (domain or fragment, also called WT TGM-D3; domain 3 of H. polygyrus TGF-β mimic; not shown: Thioredoxin, N-terminal, cleaved; His6, N-terminal, cleaved) GSGTGCPPLPDDGIVFYEYYGYAGDRHTVGPVVTKDSSGNYPSPTHARRRCRALSQEADPGEFVAICYKSGTTGESHWEYYKNIGKCPDP
log10 of kon: 5.20
//
BINDER: TGM-D3 F235A (domain or fragment, also called Phe235Ala; not shown: Thioredoxin, N-terminal, cleaved; His6, N-terminal, cleaved) GSGTGCPPLPDDGIVFYEYYGYAGDRHTVGPVVTKDSSGNYPSPTHARRRCRALSQEADPGEAVAICYKSGTTGESHWEYYKNIGKCPDP
log10 of kon: 5.65
